Below, each entry is listed with its recorded TGI.
System: SF-268 CNS
Assay: NCI tumour cell line growth inhibition, 48 h
measured-quantity: TGI

>>> result("CC(CN(C)C)C(=O)/C=C/c1ccc(Cl)c(Cl)c1 (stereo unspecified)")
"4.14 µM"
>>> result("Cc1ccc([Se][Se]c2ccc(C)cc2)cc1")
"88.1 µM"
>>> result("COc1ccc(CCC2NCCc3cc(OC)c(OC)cc32)cc1 (stereo unspecified)")
"> 100 µM"
>>> result("CCOC(=O)/C=C(/C(=O)OCC)n1ccc(=O)[nH]c1=O")
"39.6 µM"
>>> result("Cc1nc2ccc(NCCN(C)C)c3c(=O)c4cc(O)ccc4n1c23")
"5.43 µM"
>>> result("CC(C)(C)OC(=O)N1C/C=C\\C(=O)C2(OCCO2)c2ccccc21")
"> 100 µM"
>>> result("O=c1cc2cc(O)[nH]c(=O)c2c(O)[nH]1")
"> 100 µM"
>>> result("CC1=CC(=O)/C(=C/N2CCNC2=S)C(=O)O1")
"> 100 µM"
>>> result("COc1cc(C2C3=C(N=C4SC(C(C)=O)=C(C)N42)c2ccccc2CC3)cc(OC)c1OC (stereo unspecified)")
"> 100 µM"
>>> result("COc1ccc(-c2nn(-c3cccc(NC(=O)Nc4cccc(C(F)(F)F)c4)c3)cc2-c2ccncc2)cc1Cl")
"> 100 µM"
>>> result("C1C[OH+]CC[OH+]CC[OH+]CC[OH+]CC[OH+]CC[OH+]1.[Cl-].[Ta+5]")
"> 100 µM"

---

Below, each entry is listed with its recorded TGI.
System: U251 CNS
Experiment: NCI tumour cell line growth inhibition, 48 h
measured-quantity: TGI

>>> result("CCN1CCCCC(=N\\O)/C(=N/O)CCCC1")
"> 100 µM"
>>> result("CC(C)C[C@H](NC(=O)[C@H](CCc1ccccc1)NC(=O)c1ccc2ccccc2n1)B(O)O")
"6.11 µM"
>>> result("Cc1ccc(CC(=O)Nc2ccc(NC(=O)CNC(=O)/C=C/c3ccc(-c4ccccc4)cc3)cc2C(=O)c2ccccc2)cc1")
"8.67 µM"
>>> result("Cc1ccc(C2(c3ccc(C)c(O)c3C)CCN(C)CC2)c(C)c1O")
"> 100 µM"
>>> result("Cc1[nH]c(=O)[nH]c(=O)c1C(=O)N(CCO)Cc1ccccc1")
"> 100 µM"
>>> result("c1ccc2nn(C3CCCCO3)nc2c1 (configuration not stated)")
"> 100 µM"
>>> result("Cc1nn(C(=O)c2ccc(Cl)cc2)c2c1C(c1ccco1)SC(N)=N2 (configuration not stated)")
"> 10 µM"
>>> result("CC1=N/C(=C\\c2cccc3ccccc23)C(=O)O1")
"> 100 µM"
>>> result("COc1cccc(/C=N/n2c(Cc3ccc(Cl)cc3)n[nH]c2=O)c1")
"55.2 µM"
>>> result("CCOC(=O)c1cnc2c(cnn2CC)c1NN=C(C)C")
"> 100 µM"
>>> result("O=C1NC(=S)NC(=O)C1=Cc1ccc2ccccc2n1")
"> 100 µM"
>>> result("Cc1nc(N)nc(N)c1N1CCN(Cc2ccccc2)CC1")
"> 100 µM"
>>> result("C=C(C(=O)OC)[C@@H]1C[C@@H](O)[C@]2(C)CC/C=C(\\C)CCC[C@H](C)[C@H](O)C1O2")
"> 100 µM"
>>> result("COc1cccc(C2C(C#N)=C(N)Oc3cc(OC)ccc32)c1 (configuration not stated)")
"> 100 µM"
>>> result("CC(=O)OC1C(O)C(C)OC(OC(=O)C2CCC3C(C2)OC2(CC(OC(=O)/C=C/c4ccccc4)C(C)CO2)C32CO2)C1OC1OC(C)C(O)C(O)C1O (configuration not stated)")
"0.12 µM"
>>> result("c1ccc2c(c1)ccc1c3ccccc3ccc21")
"> 50 µM"
>>> result("CN(C)CCNC(=O)c1cccc2c1nc(-c1ccccn1)c1ccccc12")
"34.5 µM"
>>> result("Oc1ccc(-c2nc3ccc4[nH]ncc4c3c3c2CCCC3)c2cccnc12")
"5.97 µM"
>>> result("C[C@@]12CCC[C@@](C)(C(=O)O)C1CC[C@@]13CC(=O)[C@@](CO)(CCC12)C3 (some centres not stated)")
"> 100 µM"
>>> result("COC1CCC(n2c([C@@H]3CCCC(=O)N3c3ccc(F)c(F)c3)nc3cc(-c4c(C)noc4C)ccc32)CC1 (some centres not stated)")
"23.8 µM"
>>> result("O=C1CCC(=O)C12CCc1cccc(O)c12")
"> 100 µM"
>>> result("COc1ccc(S(=O)(=O)N/N=C(\\C)CN2C(=O)c3ccccc3C2=O)cc1")
"> 100 µM"
>>> result("CCCN(CCC)c1c([N+](=O)[O-])cc(C(=O)N(C)C)cc1[N+](=O)[O-]")
"> 100 µM"
>>> result("C1=C[C@]2(CCC13OCCO3)COc1ccccc12")
"> 100 µM"
>>> result("Oc1ccccc1C=Nc1ccccc1N=Cc1ccccc1O")
"> 100 µM"
>>> result("O=C1C=C(Nc2nc(C(=O)O)cc(=O)[nH]2)c2ccccc2C1=O")
"> 100 µM"
>>> result("Cc1nc2ccc(NCCN(C)C)c3c(=O)c4cc(O)ccc4n1c23")
"11.7 µM"
>>> result("CCOC(=O)C1=CN(C(=O)c2ccccc2)CCC1Cc1ccccc1 (configuration not stated)")
"51.9 µM"
>>> result("O=[N+]([O-])c1ccc(-[n+]2ccc3ccccc3c2)c([N+](=O)[O-])c1")
"17.7 µM"
>>> result("CC(CC(C)(C)[N+](C)(C)C)[N+](C)(C)C (configuration not stated)")
"> 100 µM"
>>> result("CCCC1C(C#N)(C#N)C(C#N)=C(N)C1(C)C(C)=O (configuration not stated)")
"> 100 µM"
>>> result("CC1=CC(=O)/C(=C/N2CCNC2=S)C(=O)O1")
"> 100 µM"
>>> result("Cc1ccc(Nc2ccc(Nc3ccc(C)cc3S(=O)(=O)O)c3c2C(=O)c2ccccc2C3=O)c(S(=O)(=O)O)c1")
"> 100 µM"
>>> result("O=C1CC(c2c[nH]c3ccccc23)C(=O)N1c1ccccc1 (configuration not stated)")
"> 100 µM"
>>> result("Cc1oc2c(C)c3oc(=O)cc(C)c3cc2c1CN")
"74.8 µM"
>>> result("CC(=O)C(C(=O)C(C)(C)C)C(=O)C(C)(C)C")
"> 100 µM"
>>> result("O=C1C=C(NCCc2cc(Br)c(O)c(Br)c2)C(=O)c2[nH]cnc21")
"> 100 µM"
>>> result("COc1ccc(-c2[nH]ncc2-c2cc(OC)c(OC)c(OC)c2)cc1")
"6.11 µM"
>>> result("N#Cc1nc(Nc2ccc([N+](=O)[O-])cc2)sc1N")
"> 48.5 µM"
>>> result("COC(=O)[C@H](Cc1ccccc1)NC(=O)[C@@H](OC)[C@@H]1Cc2cc3cc(OC4CC(OC5CC(O)C(O)C(C)O5)C(O)C(C)O4)c(C)c(O)c3c(O)c2C(=O)[C@H]1OC1CC(OC2CC(OC3CC(C)(O)C(O)C(C)O3)C(O)C(C)O2)C(O)C(C)O1 (some centres not stated)")
"> 14.3 µM"
>>> result("COc1cc(C(CC(OC)OC)=C(C#N)C#N)cc(OC)c1OC")
"91.4 µM"
>>> result("C/C(=N\\NC(=O)N/N=C(\\C)c1ccccn1)c1ccccn1")
"> 100 µM"

---

System: SK-MEL-28 melanoma
Experiment: NCI tumour cell line growth inhibition, 48 h
measured-quantity: TGI (µM)

>>> measured_number("CC(C)[C@@H](CS(=O)(=O)C(C)C)N1C(=O)[C@@](C)(CC(=O)O)C[C@H](c2cccc(Cl)c2)[C@H]1c1ccc(Cl)cc1")
61.2
>>> measured_number("OC(C(=Nc1ccccc1)c1ccccc1)c1ccccc1 (stereo not given)")
15.2

---

Test system: UO-31 renal
Assay: NCI tumour cell line growth inhibition, 48 h
Below, each entry is listed with its recorded log10(TGI).
measured-quantity: log10(TGI) (log10 of the value in µM)

>>> measured_number("O=[N+]([O-])c1ccc(-[n+]2ccc3ccccc3c2)c([N+](=O)[O-])c1")
0.97
>>> measured_number("COC1CCC(n2c([C@@H]3CCCC(=O)N3c3ccc(F)c(F)c3)nc3cc(-c4c(C)noc4C)ccc32)CC1 (stereo not given in full)")
1.16
>>> measured_number("c1ccc(-c2nc3ccccc3n3nnnc23)cc1")
0.20
>>> measured_number("COC(=O)C(N)CCCC(N)C(=O)NC(C)C(=O)NC(CCC(=O)NCCCNc1ccc([N+](=O)[O-])c2[nH]c3ccccc3c(=O)c12)C(N)=O (stereo not given)")
1.14
>>> measured_number("COC(=O)[C@]12CC[C@@H](C)[C@H](C)[C@@H]1C1=CC[C@@H]3[C@@]4(C)C=C(O)C(=O)C(C)=C4CC[C@@]3(C)[C@]1(C)CC2")
1.42
>>> measured_number("O=Cc1cc(O)c(O)c(/C=N/n2c3ccccc3c3ccccc32)c1")
1.42
>>> measured_number("O=C(O)C(CO)NC(=O)C1C(C(=O)O)C(c2ccccc2[N+](=O)[O-])C=C(c2ccco2)N1c1ccncc1 (stereo not given)")
1.02
>>> measured_number("Cc1ccc([Se][Se]c2ccc(C)cc2)cc1")
1.70
>>> measured_number("CC(C)C[C@H](NC(=O)[C@H](CCc1ccccc1)NC(=O)c1ccc2ccccc2n1)B(O)O")
-0.23
>>> measured_number("CC(=O)OC1C(O)C(C)OC(OC(=O)C2CCC3C(C2)OC2(CC(OC(=O)/C=C/c4ccccc4)C(C)CO2)C32CO2)C1OC1OC(C)C(O)C(O)C1O (stereo not given)")
1.52
>>> measured_number("COc1cc(/C=C/C(=O)c2cc(OC)c(OC)c(OC)c2)cc(OC)c1OC")
1.08
